Test: NCI Yeast Anticancer Drug Screen. Data for the bub3 strain (AID 167)
Conditions: S. cerevisiae bub3 mutant strain, at 50.0 µM (retest, dose inferred, filed as 5.0), active compounds read high
About 79,000 compounds went through this panel and 15% of them were active in at least one assay; those are over-represented in the sample as a whole. Active and inactive are the calls of the source. Rule as the data show it: active = growth inhibition above about 70%; inactive = the rest.
Overview of recorded growth inhibition for various compounds

Query: Record request: growth inhibition value, item CN(CCc1ccc(Br)cc1)CCN1CCCCC1
Result: 88% (active)

Query: Another: CCOC(=O)C(NC(=O)C(Cc1ccc(N(CCCl)CCCl)cc1)NC(C)=O)C(C)C (centres undefined)
Result: -2% (inactive)

Query: Another: CCOC(=O)c1ccccc1N
Result: 6% (inactive)

Query: Another: CC1CC(C)CC(C)C(O)/C(C#N)=C/C=C/CC(C2CCCC2C(=O)O)OC(=O)CC(O)C(C)C1 (centres undefined)
Result: -7% (inactive)

----------
Overview of recorded growth inhibition for various compounds
Assay: NCI Yeast Anticancer Drug Screen. Data for the rad14 strain (AID 159);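 also: 0% = growth of vehicle-treated control cultures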
Details: S. cerevisiae rad14 strain growth inhibition; at 3.7 µM; active compounds read high
About 79,000 compounds went through this panel and 15% of them were active in at least one assay; those are over-represented in the sample as a whole.
Give just the numeric value; % need not be written.

| Compound | Experimental Value |
| --- | --- |
| Nc1nc(N)c(-c2ccc(Cl)c(Cl)c2)c(CP(Cl)(Cl)(Cl)Br)n1 | 8 |

As a next step, examine the compound that follows.
Query: Record request: growth inhibition value, item COC1C(O)C(C)OC(OC2C(Oc3cccc4c(O)c5c(=O)oc6ccc(C)c7c(=O)oc(c34)c5c67)OC(C)C(O)C2O)C1O (centres undefined)
Result: 9

----------
Experiment: NCI Yeast Anticancer Drug Screen. Data for the sgs1 mgt1 strain (AID 161);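 also: 0% = growth of cultures given vehicle only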
Settings: S. cerevisiae sgs1 mgt1 strain, at 50.0 µM, active compounds read high
The panel holds about 79,000 compounds, 15% with a hit somewhere; the sample as a whole holds those more often. Active and inactive are the calls of the source. Rule as the data show it: active = growth inhibition above about 70%; inactive = the rest.
Overview of recorded growth inhibition for various compounds

Check out these entries, answers already filled in.
| Molecule Smiles | growth inhibition |
| --- | --- |
| Cc1cc(C)[n+](CCOc2ccc(/C(=C(/Cl)c3ccccc3)c3ccccc3)cc2)c(C)c1 | 92.2% (active) |
| CN(C)c1ccc(/C=C/c2cc[n+]3ccsc3n2)cc1 | 92.2% (active) |
| c1ccc2c[n+](CCCCCCCCCC[n+]3ccc4ccccc4c3)ccc2c1 | 90.5% (active) |

As a next step, examine the compound that follows.
Query: Record request: growth inhibition value, item CCCCCNC(=O)c1c(O)[nH]c(=S)[nH]c1=O
Result: 92.2% (active)

----------
Test: NCI Yeast Anticancer Drug Screen. Data for the mec2-1 strain (AID 157)
Conditions: S. cerevisiae mec2-1 strain, at 50.0 µM (retest, dose inferred, filed as 5.0), active compounds read high
The panel holds about 79,000 compounds, 15% with a hit somewhere; the sample as a whole holds those more often.
Quick rule: growth inhibition of at least 90% means YES, below that means NO.

Solved cases below.
| Compound | Qualitative Label |
| --- | --- |
| C[C@]12CC[C@H]3[C@@H](CCC4=CC(=O)CC[C@@H]43)[C@@H]1CC[C@@H]2OC1(O)C(=O)c2ccccc2C1=O | NO |
| CC1CN1C1=C(Cl)C(=O)C(N2CC2C)=C(Cl)C1=O (configuration not stated) | YES |
| ClCCN(CCCl)B(N(CCCl)CCCl)N(CCCl)CCCl | NO |
| O=C(CCl)Nc1cccc(Cl)c1 | NO |
| O=C(O)c1ccccc1.[Ag] | YES |

Query: Does the compound CN(/N=C/c1ccc(Cl)cc1)P(=O)(N1CC1)N1CC1 have recorded growth inhibition that is 90% or more?
Result: NO

Query: Another: COc1ccc(/C=C/[N+](=O)[O-])c(OC)c1OC
Result: NO

Query: Another: c1cc[c]([Pb]([c]2ccccc2)[c]2ccccc2)cc1.c1cc[c]([Pb]([c]2ccccc2)[c]2ccccc2)cc1
Result: YES

Query: Another: COC(=O)C1=C(C)NC(=S)NC1c1ccc(N(CCCl)CCCl)cc1Cl (configuration not stated)
Result: YES

Query: Another: C=CCN1C(=O)NC(=O)/C(=C/c2c3ccccc3cc3ccccc23)C1=O
Result: YES

Query: Another: Fc1ccc(NP(=S)(Nc2ccc(F)cc2F)Nc2ccc(F)cc2F)c(F)c1
Result: YES

Query: Another: CCC[CH2][Sn]1([CH2]CCC)[O]C(=O)c2cccnc2[O]1
Result: YES
